# Assay System: proMMP9(67-444;ΔFnII) (SEQ ID NO:5) (Homo sapiens, UniProt P14780, DEL216-390)
# Construct: start methionine (N)
# Sequence (P14780 with tags, fused parts or gaps DEL216-390): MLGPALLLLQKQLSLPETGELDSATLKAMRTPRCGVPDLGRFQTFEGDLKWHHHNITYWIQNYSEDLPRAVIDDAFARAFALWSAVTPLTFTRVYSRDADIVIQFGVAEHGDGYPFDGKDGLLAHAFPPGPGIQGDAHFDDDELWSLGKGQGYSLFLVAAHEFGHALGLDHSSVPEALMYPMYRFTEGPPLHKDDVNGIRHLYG
# Protocol Description: ThermoFluor binding assay with proMMP9(67-444;ΔFnII)
# Assay Context: pH 7.0
# Experimental: The ThermoFluor® (TF) assay is a 384-well plate-based binding assay that measures thermal stability of proteins (Biomol Screen 2001, 6, 429-40; Biochemistry 2005, 44, 5258-66). The experiments were carried out using instruments available from Johnson & Johnson Pharmaceutical Research & Development, LLC. TF dye used in all experiments was […] (1,8-ANS) (Invitrogen: A-47). […]
Counter-ions that a name gives are not always drawn.
Just a reminder that ties go to criterion not met: only Kd strictly below 300 nM counts as criterion met.

Answered cases to consult:
[[record]]
compound = "Cc1nc(N2CCN(C)CC2)sc1-c1csc(Nc2cc(C(N)=O)ccc2OC(C)C)n1"
category = "criterion met"

[[record]]
compound = "CCOc1ccc(C(N)=O)cc1Nc1nc(-c2sc(C(=O)N3CCN(C)CC3)nc2C)cs1"
category = "criterion not met"

[[record]]
compound = "COc1cc(C)c(C(N)=O)cc1Nc1nc(-c2sc(N3CCN(C)CC3)nc2C)cs1"
category = "criterion not met"

[[record]]
compound = "COc1ccc(C#N)cc1Nc1nc(-c2sc(C)nc2C)cs1"
category = "criterion not met"

[[record]]
compound = "Cc1nc(CN2CCC(O)CC2)sc1-c1csc(Nc2cc(C(N)=O)ccc2OC(C)C)n1"
category = "criterion not met"


Query string: Please indicate whether the reported Kd of COc1cc2c(cc1Nc1nc(-c3sc(C)nc3C)cs1)C(=O)NC2 is strictly below 300 nM.
Result string: criterion not met

Query string: Please indicate whether the reported Kd of COC(=O)c1ccc(OC)c(Nc2nc(-c3sc(N)nc3C)cs2)c1 [Example 86, TFA] is strictly below 300 nM.
Result string: criterion met

Query string: Please indicate whether the reported Kd of Cc1nc(C(=O)NC2CCN(C(C)C)CC2)sc1-c1csc(Nc2cc(C(N)=O)ccc2OC(C)C)n1 is strictly below 300 nM.
Result string: criterion met

---

# Assay System: proMMP9(67-444;ΔFnII) (SEQ ID NO:5) (Homo sapiens, UniProt P14780, DEL216-390)
# Construct: start methionine (N)
# Protocol Description: ThermoFluor binding assay with proMMP9(67-444;ΔFnII)
# Assay Context: pH 7.0
pKd: −log10 of the molar value.
Parameter threshold = 6. Response is True when pKd meets or exceeds it, else False.

Answered cases to consult:
[[record]]
record_smiles = "COc1ccc(-c2cnn(C)c2)cc1Nc1nc(-c2sc(C)nc2C)cs1"
assay_system = "proMMP9(67-444;ΔFnII) (SEQ ID NO:5) (Homo sapiens, UniProt P14780, DEL216-390)"
category = "False"

[[record]]
record_smiles = "COc1ccc(C(N)=O)cc1Nc1nc(-c2sc(N)nc2C(F)(F)F)cs1"
assay_system = "proMMP9(67-444;ΔFnII) (SEQ ID NO:5) (Homo sapiens, UniProt P14780, DEL216-390)"
category = "True"

[[record]]
record_smiles = "COc1ccc(C(F)(F)F)cc1Nc1nc(-c2sc(N)nc2C)cs1"
assay_system = "proMMP9(67-444;ΔFnII) (SEQ ID NO:5) (Homo sapiens, UniProt P14780, DEL216-390)"
category = "False"

[[record]]
record_smiles = "Cc1nc(C(=O)N2CCCN(C(C)C)CC2)sc1-c1csc(Nc2cc(C(N)=O)ccc2OC(C)C)n1"
assay_system = "proMMP9(67-444;ΔFnII) (SEQ ID NO:5) (Homo sapiens, UniProt P14780, DEL216-390)"
category = "False"

[[record]]
record_smiles = "CCOc1ccc(-c2ncco2)cc1Nc1nc(-c2sc(C)nc2C)cs1"
assay_system = "proMMP9(67-444;ΔFnII) (SEQ ID NO:5) (Homo sapiens, UniProt P14780, DEL216-390)"
category = "False"


Query string: Decide: is the reported value of pKd for Cc1nc(-c2ncc(C(F)(F)F)cc2N2CCCC2)sc1-c1csc(Nc2cc(C(N)=O)ccc2OC(C)C)n1 equal to or greater than 6?
Result string: False

Query string: Decide: is the reported value of pKd for CCOc1ccc(C(N)=O)cc1Nc1nc(-c2sc(C(=O)N3CCCN(CC)CC3)nc2C)cs1 equal to or greater than 6?
Result string: False

Query string: Decide: is the reported value of pKd for Cc1nc(N(C)C)sc1-c1csc(Nc2cc(C(N)=O)ccc2OC(C)C)n1 equal to or greater than 6?
Result string: True

Query string: Decide: is the reported value of pKd for Cc1nc(C(=O)N2CCC(N(C)C)CC2)sc1-c1csc(Nc2cc(C(N)=O)ccc2OC(C)C)n1 equal to or greater than 6?
Result string: True

Query string: Decide: is the reported value of pKd for CNC(=O)c1ccc(OC)c(Nc2nc(-c3sc(NC(C)=O)nc3C)cs2)c1 equal to or greater than 6?
Result string: False

Query string: Decide: is the reported value of pKd for Cc1nc(N)sc1-c1csc(Nc2cc(S(C)(=O)=O)ccc2OC(C)C)n1 equal to or greater than 6?
Result string: True

Query string: Decide: is the reported value of pKd for Cc1nc(C)c(-c2csc(Nc3cccc4cccnc34)n2)s1 equal to or greater than 6?
Result string: False

Query string: Decide: is the reported value of pKd for Cc1nc(C(=O)N(C)C)sc1-c1csc(Nc2cc(C(N)=O)ccc2OC(C)C)n1 equal to or greater than 6?
Result string: True

Query string: Decide: is the reported value of pKd for Cc1nc(C(=O)N2CCN(C3CCCCC3)CC2)sc1-c1csc(Nc2cc(C(N)=O)ccc2OC(C)C)n1 equal to or greater than 6?
Result string: False

---

The reader will find reported log10 of Kd values listed item by item below.
# Assay System: proMMP13(1-268) (SEQ ID NO:7) (Homo sapiens)
# Protocol Description: ThermoFluor binding assay with proMMP13(1-268)
# Assay Context: pH 7.0
Answers are given as log10 of Kd in µM.

Would you please look over these solved cases?
[[record]]
record_smiles = "Cc1nc(CN2CCCN(C)CC2)sc1-c1csc(Nc2cc(C(N)=O)ccc2OC(C)C)n1"
assay_system = "proMMP13(1-268) (SEQ ID NO:7) (Homo sapiens)"
observed_result = 1.04

[[record]]
record_smiles = "Cc1nc(C(=O)N2CCC(O)CC2)sc1-c1csc(Nc2cc(C(N)=O)ccc2OC(C)C)n1"
assay_system = "proMMP13(1-268) (SEQ ID NO:7) (Homo sapiens)"
observed_result = 0.11

[[record]]
record_smiles = "CCN1CCCN(C(=O)c2nc(C)c(-c3csc(Nc4cc(C(N)=O)ccc4OC(C)C)n3)s2)CC1"
assay_system = "proMMP13(1-268) (SEQ ID NO:7) (Homo sapiens)"
observed_result = 0.26

[[record]]
record_smiles = "CC(C)Oc1ccc(C(N)=O)cc1Nc1nc(-c2sc(N)nc2C(F)(F)F)cs1"
assay_system = "proMMP13(1-268) (SEQ ID NO:7) (Homo sapiens)"
observed_result = -0.66

[[record]]
record_smiles = "COc1ccc(S(N)(=O)=O)cc1Nc1nc(-c2sc(C)nc2C)cs1"
assay_system = "proMMP13(1-268) (SEQ ID NO:7) (Homo sapiens)"
observed_result = 0.30

[[record]]
record_smiles = "CC(=O)Nc1nc(C)c(-c2csc(Nc3cccc4ccccc34)n2)s1"
assay_system = "proMMP13(1-268) (SEQ ID NO:7) (Homo sapiens)"
observed_result = 1.60

[[record]]
record_smiles = "COc1ccc(C)cc1Nc1nc(-c2sc(N)nc2C)cs1"
assay_system = "proMMP13(1-268) (SEQ ID NO:7) (Homo sapiens)"
observed_result = 1.40

[[record]]
record_smiles = "CCOc1ccc(-c2ncco2)cc1Nc1nc(-c2sc(NC(C)=O)nc2C)cs1"
assay_system = "proMMP13(1-268) (SEQ ID NO:7) (Homo sapiens)"
observed_result = 0.46


Read the next record carefully.
Value of log10 of Kd reported for the compound COc1c(F)cc(C(N)=O)cc1Nc1nc(-c2sc(C)nc2C)cs1 is 1.45

---

# Assay System: full-length proMMP9(1-707) (SEQ ID NO:1) (Homo sapiens, UniProt P14780, R574P)
# Construct: made in house; host or cells: HEK293 (proMMP9, secreted); E. coli (MMP3)
# Sequence (P14780 20-707 R574P): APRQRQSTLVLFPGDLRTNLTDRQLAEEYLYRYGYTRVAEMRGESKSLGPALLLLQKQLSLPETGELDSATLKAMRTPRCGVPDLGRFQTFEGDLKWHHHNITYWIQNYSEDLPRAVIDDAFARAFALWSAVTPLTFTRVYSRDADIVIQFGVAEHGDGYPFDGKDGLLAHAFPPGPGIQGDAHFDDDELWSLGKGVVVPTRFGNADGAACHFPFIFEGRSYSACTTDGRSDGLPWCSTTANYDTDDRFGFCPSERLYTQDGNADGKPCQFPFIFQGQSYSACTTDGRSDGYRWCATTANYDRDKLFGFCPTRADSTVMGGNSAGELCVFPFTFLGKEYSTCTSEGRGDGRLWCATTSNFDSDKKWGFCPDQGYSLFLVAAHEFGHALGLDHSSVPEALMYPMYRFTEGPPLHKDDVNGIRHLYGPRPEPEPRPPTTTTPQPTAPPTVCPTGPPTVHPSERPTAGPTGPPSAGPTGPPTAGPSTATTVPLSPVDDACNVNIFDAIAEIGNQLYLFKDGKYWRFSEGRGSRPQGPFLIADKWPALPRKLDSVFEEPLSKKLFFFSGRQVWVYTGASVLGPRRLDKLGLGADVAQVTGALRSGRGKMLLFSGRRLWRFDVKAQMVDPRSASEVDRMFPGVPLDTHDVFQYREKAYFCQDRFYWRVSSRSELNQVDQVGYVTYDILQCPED
# Protocol Description: proMMP9/MMP3 P126 Activation Assay
# Format: biochemical
# Assay Context: 20 nM proMMP9, 20 nM MMP3, 80 min 37° C.
Readout: pIC50
# reply with the number alone; pIC50 is -log10 of concentration in mol/L

Would you please look over these solved cases?
[[record]]
record_smiles = "Cc1nc(C)c(-c2csc(Nc3cccc4cccnc34)n2)s1"
assay_system = "full-length proMMP9(1-707) (SEQ ID NO:1) (Homo sapiens, UniProt P14780, R574P)"
observed_result = 5.04

[[record]]
record_smiles = "CCOc1ccc(C(N)=O)cc1Nc1nc(-c2sc(C(=O)N3CCN(CC)CC3)nc2C)cs1"
assay_system = "full-length proMMP9(1-707) (SEQ ID NO:1) (Homo sapiens, UniProt P14780, R574P)"
observed_result = 6.17

[[record]]
record_smiles = "Cc1nc(C)c(-c2csc(Nc3cc(C(N)=O)ccc3OC(C)C)n2)s1"
assay_system = "full-length proMMP9(1-707) (SEQ ID NO:1) (Homo sapiens, UniProt P14780, R574P)"
observed_result = 6.80


Value of pIC50 reported for the molecule Cc1nc(C(=O)N(C)CCN(C)C)sc1-c1csc(Nc2cc(C(N)=O)ccc2OC(C)C)n1 is 6.82
